Numbers sourced from the supplement of paper PMC11246515.

This section presents sequences with their documented total protein half-life in vivo values.
- METHOD_DESCRIPTION: total protein half-life in vivo (active degradation + dilution); higher = more stable protein
- ASSAY_CONTEXT: wild type E. coli NCM3722; growth: C-lim chemostat; doubling time 3 h
MEASURE: total protein half-life in vivo

INSERT INTO measurements (seq, measure, reported_measurement) VALUES
  ('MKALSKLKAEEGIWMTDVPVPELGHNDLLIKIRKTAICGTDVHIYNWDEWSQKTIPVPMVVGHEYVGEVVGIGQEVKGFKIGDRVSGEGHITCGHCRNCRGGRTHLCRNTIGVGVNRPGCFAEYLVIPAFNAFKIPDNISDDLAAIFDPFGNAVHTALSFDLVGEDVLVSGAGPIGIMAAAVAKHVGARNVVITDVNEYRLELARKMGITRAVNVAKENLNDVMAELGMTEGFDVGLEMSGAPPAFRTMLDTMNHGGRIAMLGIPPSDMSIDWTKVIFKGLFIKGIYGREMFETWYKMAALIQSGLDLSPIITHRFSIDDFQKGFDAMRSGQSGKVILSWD', 'total protein half-life in vivo', '2.44 h'),
  ('MTKQPPIAKADLQKTQGNRAPAAVKNSDVISFINQPSMKEQLAAALPRHMTAERMIRIATTEIRKVPALGNCDTMSFVSAIVQCSQLGLEPGSALGHAYLLPFGNKNEKSGKKNVQLIIGYRGMIDLARRSGQIASLSARVVREGDEFSFEFGLDEKLIHRPGENEDAPVTHVYAVARLKDGGTQFEVMTRKQIELVRSLSKAGNNGPWVTHWEEMAKKTAIRRLFKYLPVSIEIQRAVSMDEKEPLTIDPADSSVLTGEYSVIDNSEE', 'total protein half-life in vivo', '2.62 h'),
  ('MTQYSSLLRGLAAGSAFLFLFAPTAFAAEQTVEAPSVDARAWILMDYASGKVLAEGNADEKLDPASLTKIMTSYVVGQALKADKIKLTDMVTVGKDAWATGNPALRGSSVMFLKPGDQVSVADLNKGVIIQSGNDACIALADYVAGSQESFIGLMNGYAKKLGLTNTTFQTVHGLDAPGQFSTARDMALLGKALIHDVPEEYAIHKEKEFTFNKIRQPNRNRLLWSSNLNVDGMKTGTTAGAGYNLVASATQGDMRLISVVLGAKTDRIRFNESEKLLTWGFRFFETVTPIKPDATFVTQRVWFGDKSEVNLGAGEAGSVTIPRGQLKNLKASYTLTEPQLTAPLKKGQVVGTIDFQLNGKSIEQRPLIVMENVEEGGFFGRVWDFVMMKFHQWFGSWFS', 'total protein half-life in vivo', '3.19 h');
